Molecular target: T1, Human B7H4 ECD (SV), splice variant, 10His_FLAG (human)
T1 construct: also called B7-H4-SV
Assay: Octet BLI, hIgG1-TM on Protein G (n = 4-7)
Give pKd for every item shown.
Please keep in mind that pKd is minus log10 of the molar concentration; only the number is needed.

Looking up ZY0EPQ-E02 human IgG1-TM (antibody, V domains shown) VH: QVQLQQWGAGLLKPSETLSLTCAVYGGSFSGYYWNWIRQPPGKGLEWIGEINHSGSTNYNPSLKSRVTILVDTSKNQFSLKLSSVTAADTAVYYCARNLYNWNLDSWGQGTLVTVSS VL: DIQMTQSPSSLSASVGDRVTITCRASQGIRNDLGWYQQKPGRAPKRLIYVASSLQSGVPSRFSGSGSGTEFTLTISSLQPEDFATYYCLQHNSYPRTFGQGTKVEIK , I see its pKd listed as 5.78

Looking up ZY0EOB-F05 human IgG1-TM (antibody, V domains shown) VH: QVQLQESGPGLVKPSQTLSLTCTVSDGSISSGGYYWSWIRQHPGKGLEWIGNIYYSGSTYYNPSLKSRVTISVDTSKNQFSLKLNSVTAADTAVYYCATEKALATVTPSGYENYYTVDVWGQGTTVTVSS VL: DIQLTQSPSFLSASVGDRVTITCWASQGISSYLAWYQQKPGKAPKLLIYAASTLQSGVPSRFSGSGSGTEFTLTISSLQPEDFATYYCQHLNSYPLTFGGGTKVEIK , I see its pKd listed as 6.76

Looking up ZY0EQD-E02 human IgG1-TM (antibody, V domains shown) VH: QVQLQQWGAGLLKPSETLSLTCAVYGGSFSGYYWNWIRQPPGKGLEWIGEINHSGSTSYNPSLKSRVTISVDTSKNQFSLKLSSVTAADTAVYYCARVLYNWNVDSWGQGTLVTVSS VL: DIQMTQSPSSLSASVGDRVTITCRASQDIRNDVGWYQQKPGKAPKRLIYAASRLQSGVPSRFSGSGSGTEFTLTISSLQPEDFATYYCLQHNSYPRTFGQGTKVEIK , I see its pKd listed as 6.10
